# assay.remarks: Acute toxicity (intravenous)
# protocol.conditions: in vivo, rat
quantity: LD50 (mg/kg)
Express it in mg/kg; write the number only.

Fill in: LD50 of CC1CCC2C(C)(C)C(O)C(O)CC2(C)C12Cc1c(O)cc3c(c1O2)C(O)OC3=O (stereo not shown) [Synthesis Example 2] is ___
500
